# SYSTEM_NAME: FPRL-1 (Homo sapiens, UniProt P25090)
# Construct: expressed in transfected cells
# Sequence (P25090 1-351): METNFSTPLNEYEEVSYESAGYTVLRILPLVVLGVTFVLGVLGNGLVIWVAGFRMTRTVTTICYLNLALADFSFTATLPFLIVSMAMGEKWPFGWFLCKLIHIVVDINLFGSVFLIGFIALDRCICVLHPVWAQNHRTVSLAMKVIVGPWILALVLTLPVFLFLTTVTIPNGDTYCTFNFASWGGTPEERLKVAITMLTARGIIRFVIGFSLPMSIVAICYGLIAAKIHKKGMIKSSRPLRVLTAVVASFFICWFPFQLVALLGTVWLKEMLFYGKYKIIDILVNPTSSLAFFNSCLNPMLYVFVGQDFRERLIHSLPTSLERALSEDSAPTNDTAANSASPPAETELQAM
# ASSAY_TEXT: compound-induced calcium activity on FLIPR Tetra in CHO-Gα16 cells stably expressing FPRL1
# Type: cell-based
# MEASUREMENT_CONDITIONS: relative efficacy

- COMPOUND: "CC(C)C[C@@H](NC(=O)Nc1ccc(Br)cc1)C(=O)NC(C)(C)C(=O)O [Compound 87]"
  FPRL-1 Ga16-CHO (Rel. eff.): "(0.74)"
- COMPOUND: "CC(C)C[C@@H](NC(=O)Nc1ccc(Br)cc1)C(=O)NC(C)(C)C(=O)OC(C)(C)C [Compound 86]"
  FPRL-1 Ga16-CHO (Rel. eff.): "(0.74)"

* * *

# SYSTEM_NAME: FPRL-1 (Homo sapiens, UniProt P25090)
# ASSAY_TEXT: compound-induced calcium activity on FLIPR Tetra in CHO-Gα16 cells stably expressing FPRL1
# MEASUREMENT_CONDITIONS: tested 0.61 to 10,000 nM, read-out: FPRL-1 Ga16-CHO EC50
# Procedure: CHO-Gα16 cells stably expressing FPRL1 were cultured in (F12, 10% FBS, 1% PSA, 400 μg/ml geneticin and 50 μg/ml hygromycin) and HEK-Gqi5 cells stable expressing FPR1 were cultured in (DMEM high glucose, 10% FBS, 1% PSA, 400 μg/ml geneticin and 50 μg/ml hygromycin). In general, the day before the experiment, 18,000 cells/well were plated in a 384-well clear bottom poly-d-lysine coated plate. […] Results are expressed as EC50 (nM) and efficacy values.
Lab note - cut at 10 nM for EC50: condition met if strictly below, condition not met if not.

Past entries and their recorded results:
- MOLECULE: "CC[C@H](C)[C@H](NC(=O)Nc1ccc(Br)cc1)C(=O)NCC(=O)OC(C)(C)C"
  GROUP: "condition not met"
- MOLECULE: "CC(C)C[C@H](NC(=O)Nc1ccc(Br)cc1)C(=O)NCC(C)(C)O"
  GROUP: "condition met"
- MOLECULE: "CCC[C@H](NC(=O)[C@H](CC(C)C)NC(=O)Nc1ccc(Br)cc1)C(=O)OC(C)(C)C"
  GROUP: "condition not met"

Turning now to a further molecule:
Given CC(=O)CNC(=O)[C@H](CC(C)C)NC(=O)Nc1ccc(Br)cc1F , is recorded EC50 strictly lower than 10 nM? condition not met

* * *

# SYSTEM_NAME: FPRL-1 (Homo sapiens, UniProt P25090)
# Construct: expressed in transfected cells
# ASSAY_TEXT: compound-induced calcium activity on FLIPR Tetra in CHO-Gα16 cells stably expressing FPRL1
# Format: cell-based
# MEASUREMENT_CONDITIONS: relative efficacy
MEASURED_ENDPOINT: FPRL-1 Ga16-CHO (Rel. eff.)

- TEST_SMILES: "CC(C)C[C@H](NC(=O)Nc1ccc(Br)cc1)C(=O)NCCO"
  OBSERVED_RESULT: "(0.92)"
- TEST_SMILES: "CCC[C@H](NC(=O)Nc1ccc(Br)cc1F)C(=O)NCC(C)=O"
  OBSERVED_RESULT: "(0.92)"

The reported measurements were obtained from patent US10172832B2.
